Reported IC50 by item:
# Test system: S. Typhimurium PhoP-regulated promoter GFP reporter, 4 h
# Assay explanation: inhibitors of PhoP regulon expression, primary screen, Salmonella Typhimurium, GFP reporter (AID 1863)

Compound	IC50
CNC[C@H](Cc1ccccc1)NC[C@@H](Cc1cccc2ccccc12)NCCc1ccc(C)cc1	27.1 µM

Query string: Query (compound): `Oc1cc(Cl)ccc1Oc1ccc(Cl)cc1Cl` ; field requested: IC50
Result string: 0.82 µM

Query string: Data request, read-out IC50, for CO[C@@]1(NC(=O)C2SC(=C(C(N)=O)C(=O)O)S2)C(=O)N2C(C(=O)O)=C(CSc3nnnn3C)CS[C@@H]21 (stereo partly drawn)
Result string: 16 µM

Query string: Any idea what its IC50 is? The compound is `CCn1cc(C(=O)O)c(=O)c2cc(F)c(N3CCN(C(=S)Nc4ccc(OC)cc4)CC3)cc21`
Result string: 6.05 µM

Query string: Entry `Oc1ccc(/C=N/Nc2ncc(Br)cn2)c(O)c1` has what IC50?
Result string: 111 µM

Query string: Param item = `CCn1cc(C(=O)O)c(=O)c2cc(F)c(N3CCN(C(=S)NC(=O)c4ccc(OC)cc4)CC3)cc21` ; retrieve measured IC50.
Result string: 11.3 µM

Query string: Look at this compound and give its reported IC50. `COc1ccc(C(=O)N/N=C/c2sc3ccccc3c2O)cc1`
Result string: 107 µM

---

# System: S. Typhimurium PhoP-regulated promoter GFP reporter, 4 h
# Assay explanation: inhibitors of PhoP regulon expression, primary screen, Salmonella Typhimurium, GFP reporter (AID 1863)
pIC50: −log10 of the molar value.
Could you label it Criterion met if measured pIC50 is 4 or higher, and Criterion not met otherwise?

Compound	Tested target	Cat
CCCCCCCSc1cc(OC)c(CCN(C)C)cc1OC	S. Typhimurium PhoP-regulated promoter GFP reporter, 4 h	Criterion met
Oc1cccc(/C=N/Nc2ccc(Cl)nn2)c1O	S. Typhimurium PhoP-regulated promoter GFP reporter, 4 h	Criterion not met
CC[n+]1c(/C=C/C=C/c2ccc(N(C)C)cc2)sc2ccccc21	S. Typhimurium PhoP-regulated promoter GFP reporter, 4 h	Criterion met
CCCNC(=O)c1cn(CC)c2cc(N3CCN(C)CC3)c(F)cc2c1=O	S. Typhimurium PhoP-regulated promoter GFP reporter, 4 h	Criterion met

Now examine the next entry.
Query string: Entry CN1CCN(C(c2ccc(C(F)(F)F)cc2)c2cc(Cl)c3cccnc3c2O)CC1 (stereo not drawn) : is its pIC50 no less than 4?
Result string: Criterion met

---

# Test system: S. Typhimurium PhoP-regulated promoter GFP reporter, 4 h
# Assay explanation: inhibitors of PhoP regulon expression, primary screen, Salmonella Typhimurium, GFP reporter (AID 1863)
Some compounds, each annotated with its measured pIC50.
Answer as the number alone; pIC50 is minus log10 of concentration in mol/L.

As a guide, the following entries are already answered.
Compound	pIC50
CCCc1nnc(NC(=O)c2cn(CC)c3cc(N4CCN(C)CC4)c(F)cc3c2=O)s1	4.17
Cc1ccc(S(=O)(=O)Nc2cc(Cl)c(O)c3ncccc23)cc1	4.28
Cc1ccc(Nc2cc(C)c3c(O)cccc3n2)cc1C	4.12
Cc1ccc(Nc2nc(N)c3ccccc3n2)cc1Cl	4.17
Cc1ccc(C(c2cc(Cl)c3cccnc3c2O)N2CCN(C)CC2)cc1 (centres undefined)	4.26

Query string: Entry `Cc1cccc(Nc2c3c(nc4ccccc24)CCC3)c1` : reported pIC50 = ?
Result string: 3.97

Query string: State the recorded pIC50 for this entry: `CCCCCCCCCCCCCCCC[N+](C)(C)CCN(Cc1ccc(OC)cc1)c1ncccn1`
Result string: 4.52

Query string: Param item = `CCCCCNCC(=O)Nc1cccc(C(=O)Nc2cccc(C(F)(F)F)c2)c1` ; retrieve measured pIC50.
Result string: 4.02

Values from PubChem BioAssay AID1863
